target: Solute carrier family 22 member 20 (Mus musculus, UniProt Q80UJ1); test: Inhibition of mouse Oat6-mediated [3H]ES uptake in Xenopus oocytes after 1 hr; assay type: cell-based, Oocyte; conditions: read-out: Ki
Sequence (Q80UJ1 whole entry): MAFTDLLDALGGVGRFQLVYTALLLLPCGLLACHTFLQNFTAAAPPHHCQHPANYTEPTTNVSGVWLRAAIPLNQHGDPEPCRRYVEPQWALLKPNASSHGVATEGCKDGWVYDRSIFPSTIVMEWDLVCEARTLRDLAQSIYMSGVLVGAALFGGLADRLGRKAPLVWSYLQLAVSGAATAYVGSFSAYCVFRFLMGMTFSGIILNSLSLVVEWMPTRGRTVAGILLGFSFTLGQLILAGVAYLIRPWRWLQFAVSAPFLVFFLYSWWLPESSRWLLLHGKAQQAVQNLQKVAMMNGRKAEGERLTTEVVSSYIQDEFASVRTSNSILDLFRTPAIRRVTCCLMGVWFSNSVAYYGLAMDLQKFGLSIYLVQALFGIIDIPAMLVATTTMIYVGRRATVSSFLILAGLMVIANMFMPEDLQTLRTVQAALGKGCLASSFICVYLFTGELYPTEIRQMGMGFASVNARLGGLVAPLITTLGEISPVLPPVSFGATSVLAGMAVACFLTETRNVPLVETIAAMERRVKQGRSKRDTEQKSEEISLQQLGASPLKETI
ASSAY READOUT: Ki (mM)

// query Ki value for entry O=C(O)CCCCCCC(=O)O [OCTANEDIOATE]
1.13

[a] CC1(C)S[C@@H]2[C@H](NC(=O)C(C(=O)O)c3ccccc3)C(=O)N2[C@H]1C(=O)O (some centres undefined) [CARBENICILLIN DISODIUM]
[b] O=C(O)CCCC(=O)O [GLUTARATE]
[c] CCCN(CCC)S(=O)(=O)c1ccc(C(=O)O)cc1 [PROBENECID]
Please list these in order of increasing Ki. Thank you! Form entry: labels listed in requested order.
c, a, b
(c: 0.0084 mM, a: 1.33 mM, b: 5.41 mM)
